The values you see were collected from patent US20240301023A1.

- experimental-system: Kappa opioid receptor (KOR) (Homo sapiens (Human), UniProt P41145 1-380)
- Sequence (P41145 whole entry, form in doubt): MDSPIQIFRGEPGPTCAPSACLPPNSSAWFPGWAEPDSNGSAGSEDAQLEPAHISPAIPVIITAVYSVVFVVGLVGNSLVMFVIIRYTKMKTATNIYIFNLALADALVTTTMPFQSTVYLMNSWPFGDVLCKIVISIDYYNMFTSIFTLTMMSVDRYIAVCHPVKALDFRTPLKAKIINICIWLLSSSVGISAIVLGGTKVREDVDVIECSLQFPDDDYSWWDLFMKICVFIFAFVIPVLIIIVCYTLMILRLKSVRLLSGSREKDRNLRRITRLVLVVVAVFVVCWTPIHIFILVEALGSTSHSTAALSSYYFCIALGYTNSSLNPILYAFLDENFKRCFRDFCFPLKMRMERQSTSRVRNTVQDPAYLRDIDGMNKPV
- measurement-notes: cell-based or functional assay
Square brackets hold non-standard residues; d marks the D form. Phe(4-NO2) = N[C@@H](Cc1ccc([N+](=O)[O-])cc1)C(=O)O; Phe(4-Cl) = N[C@@H](Cc1ccc(Cl)cc1)C(=O)O; Phe(4-F) = N[C@@H](Cc1ccc(F)cc1)C(=O)O; NMA = N-methylarginine; Sar = CNCC(=O)O
This listing pairs binders with measured Activity (EC50, nM), cAMP assay.

{"binder": "H-Y[Sar][Phe(4-F)]L[NMA][dR]-NH2 [SEQ ID NO. 14: NH2-Tyr-Sar-(4-F)Phe-Leu-NMA-DArg-NH2]", "Activity (EC50, nM), cAMP assay": 11.6}
{"binder": "H-Y[Sar][Phe(4-NO2)]L[NMA][dR]-NH2 [SEQ ID NO. 15: NH2-Tyr-Sar-(4-NO2)Phe-Leu-NMA-DArg-NH2]", "Activity (EC50, nM), cAMP assay": 13.5}
{"binder": "H-Y[Sar][Phe(4-Cl)]LR[dR]-NH2 [SEQ ID NO. 11: NH2-Tyr-Sar-(4-Cl)Phe-Leu-Arg-DArg-NH2]", "Activity (EC50, nM), cAMP assay": 6.1}
